Reported values of CC50 for individual entries
System: HeLa-APL
Assay: SRB colorimetric assay of cell growth and viability, HeLa-APL
Type: cell-based, human
Conditions: 48 hours exposure; read-out: LC50 HELA-APL
Where a SMILES comes first, the peptide text is derived from it. Bridges are numbered along the chain shown (N, C = ends). [ ]: non-standard residue; d: D form. The star is where a group is joined. d(aThr) = C[C@@H](O)[C@@H](N)C(=O)O; Hexanoyl(5-Me) = CC(C)CCCC(=O)*; dCha = N[C@H](CC1CCCCC1)C(=O)O; Orn = NCCC[C@H](N)C(=O)O; Dhb = C/C=C(\N)C(=O)O
Remember to quote the unit after the number.

INSERT INTO results (compound, assay_target, result) VALUES
  ('C/C=C1\NC(=O)[C@H](Cc2ccccc2)NC(=O)[C@@H](CC2CCCCC2)NC(=O)[C@@H](CC2CCCCC2)NC(=O)[C@H](NC(=O)[C@@H](CC2CCCCC2)NC(=O)[C@H](CCCN)NC(=O)[C@H]2CCCN2C(=O)[C@H](NC(=O)[C@@H](NC(=O)[C@@H](NC(=O)[C@H](NC(=O)CCCC(C)C)C(C)C)[C@@H](C)O)C(C)C)C(C)C)[C@@H](C)OC(=O)[C@H](C(C)C)NC1=O [Compound 11, [D-Cha^4, D-Cha^5, D-Cha^7]-KF] ({Hexanoyl(5-Me)}-[dV]TV[dV][dP][Orn][dCha][d(aThr)][dCha][dCha]F[Dhb]V; ester 8-C)', 'HeLa-APL', '2.32 µM');

Consider now this further compound.
Asked: Entry C/C=C1\NC(=O)[C@H](Cc2ccccc2)NC(=O)[C@@H](C(C)C)NC(=O)[C@@H]([C@@H](C)CC)NC(=O)[C@H](NC(=O)[C@H](NC(=O)[C@H](CCCN)NC(=O)[C@H]2CCCN2C(=O)[C@H](NC(=O)[C@@H](NC(=O)[C@@H](NC(=O)[C@@H](CCC(N)=O)NC(=O)CCCC(C)C)[C@@H](C)O)C(C)C)C(C)C)[C@@H](C)CC)[C@@H](C)OC(=O)[C@H](C(C)C)NC1=O [Compound 40, [D-Gln^13]-KF] has what CC50?
Given back: 6.64 µM

====

Recorded GI50 values for a group of molecules are listed next.
Tested on: LoVo
Assay: SRB colorimetric assay of cell growth and viability, LoVo
Assay type: cell-based, human
Details: 48 hours exposure
Experimental: The finality of this assay is to interrupt the growth of a “in vitro” tumor cell culture by means a continued exhibition of the cells to the sample to be testing. […] Cells are seeded in 96 well microtiter plates, at 5×10^3 cells per well in aliquots of 195 μL medium, and they are allowed to attach to the plate surface by growing in drug free medium for 18 hours. […] Optical densities are read on a automated spectrophotometric plate reader at a single wavelength of 490 nm. […]
Where a SMILES comes first, the peptide text is derived from it. Bridges are numbered along the chain shown (N, C = ends). [ ]: non-standard residue; d: D form. The star is where a group is joined. d(aIle) = CC[C@H](C)[C@@H](N)C(=O)O; d(aThr) = C[C@@H](O)[C@@H](N)C(=O)O; Hexanoyl(5-Me) = CC(C)CCCC(=O)*; Orn = NCCC[C@H](N)C(=O)O; Dhb = C/C=C(\N)C(=O)O
The answer is to be given in nM; state only the numeric part.

INSERT INTO assay_data (molecule, assay_target, quantitative_result) VALUES
  ('C/C=C1\NC(=O)[C@H](Cc2ccccc2)NC(=O)[C@@H](C(C)C)NC(=O)[C@@H]([C@@H](C)CC)NC(=O)[C@H](NC(=O)[C@H](NC(=O)[C@H](CCCN)NC(=O)[C@H]2CCCN2C(=O)[C@H](NC(=O)[C@H](C)NC(=O)[C@@H](NC(=O)[C@H](NC(=O)CCCC(C)C)C(C)C)[C@@H](C)O)C(C)C)[C@@H](C)CC)[C@@H](C)OC(=O)[C@H](C(C)C)NC1=O [Compound 44, [Ala^11]-KF] ({Hexanoyl(5-Me)}-[dV]TA[dV][dP][Orn][d(aIle)][d(aThr)][d(aIle)][dV]F[Dhb]V; ester 8-C)', 'LoVo', 973);

Asked: Return GI50 measured with LoVo given this molecule: C/C=C1\NC(=O)[C@H](Cc2ccccc2)NC(=O)[C@@H](C(C)C)NC(=O)[C@@H]([C@@H](C)CC)NC(=O)[C@H](NC(=O)[C@H](NC(=O)[C@H](CCCN)NC(=O)[C@H]2CCCN2C(=O)[C@H](NC(=O)[C@@H](NC(=O)[C@@H](NC(=O)CNC(=O)CCCC(C)C)[C@@H](C)O)C(C)C)C(C)C)[C@@H](C)CC)[C@@H](C)OC(=O)[C@H](C(C)C)NC1=O [Compound 33, [Gly^13]-KF]
Given back: 3990

Asked: GET /values?readout=GI50&system=LoVo&item= C/C=C1\NC(=O)[C@H](Cc2ccccc2)NC(=O)[C@@H](C(C)C)NC(=O)[C@@H]([C@@H](C)CC)NC(=O)[C@H](NC(=O)[C@H](NC(=O)[C@H](CCCN)NC(=O)[C@H]2CCCN2C(=O)[C@H](NC(=O)[C@@H](NC(=O)[C@@H](NC(=O)[C@H](NC(=O)CCCC(C)C)[C@H](C)O)[C@@H](C)O)C(C)C)C(C)C)[C@@H](C)CC)[C@@H](C)OC(=O)[C@H](C(C)C)NC1=O [Compound 41, [D-Thr^13]-KF]
Given back: 155

====

Tested on: SK-BR-3
Experiment: SRB colorimetric assay of cell growth and viability, SK-BR-3
Format: cell-based, human
Conditions: SK-BR-3; 48 hours exposure
Where a SMILES comes first, the peptide text is derived from it. Bridges are numbered along the chain shown (N, C = ends). [ ]: non-standard residue; d: D form. The star is where a group is joined. d(aIle) = CC[C@H](C)[C@@H](N)C(=O)O; d(aThr) = C[C@@H](O)[C@@H](N)C(=O)O; Hexanoyl(5-Me) = CC(C)CCCC(=O)*; Orn = NCCC[C@H](N)C(=O)O; Dhb = C/C=C(\N)C(=O)O
observed property: GI50 (µM)
Quick reminder: number only, in µM, skip the unit.

INSERT INTO measurements (molecule, quantitative_result) VALUES
  ('C/C=C1\NC(=O)[C@H](Cc2ccccc2)NC(=O)[C@@H](C(C)C)NC(=O)[C@@H]([C@@H](C)CC)NC(=O)[C@H](NC(=O)[C@H](NC(=O)[C@H](CCCN)NC(=O)[C@H]2CCCN2C(=O)[C@H](NC(=O)[C@@H](NC(=O)[C@H](Cc2ccccc2)NC(=O)[C@H](NC(=O)CCCC(C)C)C(C)C)C(C)C)C(C)C)[C@@H](C)CC)[C@@H](C)OC(=O)[C@H](C(C)C)NC1=O [Compound 114, [Phe^12]-KF] ({Hexanoyl(5-Me)}-[dV]FV[dV][dP][Orn][d(aIle)][d(aThr)][d(aIle)][dV]F[Dhb]V; ester 8-C)', 0.207),
  ('C/C=C1\NC(=O)[C@H](Cc2ccccc2)NC(=O)[C@@H](C(C)C)NC(=O)[C@@H]([C@@H](C)CC)NC(=O)[C@H](NC(=O)[C@H](NC(=O)[C@H](CCCN)NC(=O)[C@H]2CCCN2C(=O)[C@H](NC(=O)[C@@H](NC(=O)[C@@H]2CCCN2C(=O)[C@H](NC(=O)CCCC(C)C)C(C)C)C(C)C)C(C)C)[C@@H](C)CC)[C@@H](C)OC(=O)[C@H](C(C)C)NC1=O [Compound 117, [Pro^12]-KF] ({Hexanoyl(5-Me)}-[dV]PV[dV][dP][Orn][d(aIle)][d(aThr)][d(aIle)][dV]F[Dhb]V; ester 8-C)', 1.55),
  ('C/C=C1\NC(=O)[C@H](Cc2ccccc2Cl)NC(=O)[C@@H](C(C)C)NC(=O)[C@@H]([C@@H](C)CC)NC(=O)[C@H](NC(=O)[C@H](NC(=O)[C@H](CCCN)NC(=O)[C@H]2CCCN2C(=O)[C@H](NC(=O)[C@@H](NC(=O)[C@@H](NC(=O)[C@H](NC(=O)CCCC(C)C)C(C)C)[C@@H](C)O)C(C)C)C(C)C)[C@@H](C)CC)[C@@H](C)OC(=O)[C@H](C(C)C)NC1=O [Compound 81, [Phe(2-Cl)^3]-KF]', 0.0612);

Now examine the next entry.
Asked: Data request, read-out GI50, for C/C=C1\NC(=O)[C@H](Cc2ccccc2)NC(=O)[C@@H](C(C)C)NC(=O)[C@@H]([C@@H](C)CC)NC(=O)[C@H](NC(=O)[C@H](NC(=O)[C@H](CCCN)NC(=O)[C@H]2CCCN2C(=O)[C@H](NC(=O)[C@@H](NC(=O)[C@H](CC(C)C)NC(=O)[C@H](NC(=O)CCCC(C)C)C(C)C)C(C)C)C(C)C)[C@@H](C)CC)[C@@H](C)OC(=O)[C@H](C(C)C)NC1=O [Compound 113, [Leu^12]-KF] ({Hexanoyl(5-Me)}-[dV]LV[dV][dP][Orn][d(aIle)][d(aThr)][d(aIle)][dV]F[Dhb]V; ester 8-C)
Given back: 0.292
